system.tested: interaction between biotinylated human S100A9 and human RAGE-Fc (Homo sapiens, UniProt P06702)
assay.details: AlphaScreen inhibition assay, biot-hS100A9:hRAGE-Fc
condition.details: biot-hS100A9 pre-incubated with compound 1 h, assay buffer with CaCl2 and ZnCl2
property: IC50 (nM)

[[record]]
compound = "O=C(O)Cc1cn2c(n1)sc1c(Cl)c(Cl)ccc12"
recorded_result = 720

[[record]]
compound = "CN(C)c1c(C(=O)O)nc2sc3c(n12)CC(C)(C)CC3(C)C"
recorded_result = 420

[[record]]
compound = "CC1(C)Cc2c(sc3nc(C(=O)NS(C)(=O)=O)cn23)C1(C)C"
recorded_result = 440

[[record]]
compound = "O=C(O)[C@@H]1CN2C(=N1)Sc1c2ccc(F)c1Cl (single isomer, unassigned)"
recorded_result = 1300

[[record]]
compound = "CC(C)(C)C1CCc2c(sc3nc(C(=O)NC#N)cn23)C1 (centres unmarked)"
recorded_result = 640


----------
system.tested: interaction between biotinylated human S100A9 and human RAGE-Fc (Homo sapiens)
Sequence (P06702 1-114): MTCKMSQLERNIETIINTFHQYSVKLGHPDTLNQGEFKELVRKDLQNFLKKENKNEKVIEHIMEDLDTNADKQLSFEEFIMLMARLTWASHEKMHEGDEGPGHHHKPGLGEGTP
assay.details: AlphaScreen inhibition assay, biot-hS100A9:hRAGE-Fc
condition.details: biot-hS100A9 pre-incubated with compound 1 h, assay buffer with CaCl2 and ZnCl2
pIC50: −log10 of the molar value.
Reported pIC50 by item:
property: pIC50

[[record]]
compound = "O=C(NS(=O)(=O)CCCO)c1cn2c(n1)sc1c(Cl)c(Cl)ccc12 [Example 28]"
system_tested = "interaction between biotinylated human S100A9 and human RAGE-Fc (Homo sapiens)"
recorded_result = 6.77

[[record]]
compound = "Cc1ccc2c(c1)sc1nc(C(=O)O)cn12 [Example 11]"
system_tested = "interaction between biotinylated human S100A9 and human RAGE-Fc (Homo sapiens)"
recorded_result = 5.30

[[record]]
compound = "CC(C)(C)C1CCc2c(sc3nc(C(=O)O)c(CN4CCCCC4=O)n23)C1 (stereo not drawn) [Example 244]"
system_tested = "interaction between biotinylated human S100A9 and human RAGE-Fc (Homo sapiens)"
recorded_result = 5.95

[[record]]
compound = "O=C(O)c1cn2c(n1)sc1c(F)c(F)ccc12 [Example 209]"
system_tested = "interaction between biotinylated human S100A9 and human RAGE-Fc (Homo sapiens)"
recorded_result = 5.99

[[record]]
compound = "O=C(O)c1nc2sc3c(Cl)c(F)ccc3n2c1C1CNC1 [Example 281]"
system_tested = "interaction between biotinylated human S100A9 and human RAGE-Fc (Homo sapiens)"
recorded_result = 5.74

[[record]]
compound = "O=C(O)c1nc2sc3c(Cl)c(F)ccc3n2c1C1CC1 [Example 291]"
system_tested = "interaction between biotinylated human S100A9 and human RAGE-Fc (Homo sapiens)"
recorded_result = 7.00

[[record]]
compound = "CC1(C)Cc2c(sc3nc(C(=O)O)c(Cl)n23)C(C)(C)C1 [Example 207]"
system_tested = "interaction between biotinylated human S100A9 and human RAGE-Fc (Homo sapiens)"
recorded_result = 6.11

[[record]]
compound = "C#Cc1c(C(=O)O)nc2sc3c(n12)CC(C)(C)CC3(C)C [Example 229]"
system_tested = "interaction between biotinylated human S100A9 and human RAGE-Fc (Homo sapiens)"
recorded_result = 6.13

[[record]]
compound = "CS(=O)(=O)N1CC(c2c(C(=O)O)nc3sc4c(Cl)c(F)ccc4n23)C1 [Example 293]"
system_tested = "interaction between biotinylated human S100A9 and human RAGE-Fc (Homo sapiens)"
recorded_result = 6.30


----------
system.tested: interaction between biotinylated human S100A9 and human RAGE-Fc (Homo sapiens, UniProt P06702)
Sequence (P06702 1-114): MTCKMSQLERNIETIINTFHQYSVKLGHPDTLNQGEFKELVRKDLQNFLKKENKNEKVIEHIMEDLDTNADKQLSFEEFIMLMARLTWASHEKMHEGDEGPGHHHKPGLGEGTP
assay.details: AlphaScreen inhibition assay, biot-hS100A9:hRAGE-Fc
condition.details: biot-hS100A9 pre-incubated with compound 1 h, assay buffer with CaCl2 and ZnCl2
pIC50: −log10 of the molar value.
Reported pIC50 by item:
property: pIC50

[[record]]
compound = "CC(C)(C)Nc1c(C(=O)O)nc2sc3cc(OC(F)(F)F)ccc3n12"
recorded_result = 5.99

[[record]]
compound = "CC(C)(C)C1CCc2c(sc3nc(C(=O)O)c(Br)n23)C1 (stereo not drawn)"
recorded_result = 5.77

[[record]]
compound = "O=C(O)c1cn2c(n1)sc1c(Cl)c(Br)ccc12"
recorded_result = 6.68

[[record]]
compound = "C=C(C)c1c(C(=O)O)nc2sc3c(n12)CC(C)(C)CC3(C)C"
recorded_result = 6.12

[[record]]
compound = "CC(C)(C)C1CCc2c(sc3nc(C(=O)NS(=O)(=O)CCCN4CCOCC4)cn23)C1 (stereo not drawn)"
recorded_result = 6.31

[[record]]
compound = "CC1(C)Cc2c(sc3nc(C(=O)O)c(Br)n23)C(C)(C)C1"
recorded_result = 6.16

[[record]]
compound = "CC1(C)Cc2c(sc3nc(C(=O)NS(C)(=O)=O)cn23)C(C)(C)C1"
recorded_result = 6.32

[[record]]
compound = "CC(C)(C)Nc1c(C(=O)O)nc2sc3c(n12)CCC(C(C)(C)C)C3 (stereo not drawn)"
recorded_result = 6.34

[[record]]
compound = "O=C(O)C(O)c1cn2c(n1)sc1c(Cl)c(Cl)ccc12 (stereo not drawn)"
recorded_result = 5.66

[[record]]
compound = "CN1CC(c2c(C(=O)O)nc3sc4c(Cl)c(F)ccc4n23)C1"
recorded_result = 6.03

[[record]]
compound = "CS(=O)(=O)NC(=O)Cc1cn2c(n1)sc1c(Cl)c(Cl)ccc12"
recorded_result = 5.54

[[record]]
compound = "O=C(NS(=O)(=O)CC(F)(F)F)c1cn2c(n1)sc1c(Cl)c(Cl)ccc12"
recorded_result = 6.74

[[record]]
compound = "CC(C)(C)C1CCc2c(sc3nc(C(=O)O)c(CO)n23)C1 (stereo not drawn)"
recorded_result = 6.30

[[record]]
compound = "CC(C)(C)C1CCc2c(sc3nc(C(=O)O)c(NS(C)(=O)=O)n23)C1 (stereo not drawn)"
recorded_result = 6.31

[[record]]
compound = "CN(C)Cc1c(C(=O)O)nc2sc3c(Cl)c(Cl)ccc3n12"
recorded_result = 6.11

[[record]]
compound = "CN1CCN(c2c(C(=O)O)nc3sc4c(n23)CC(C)(C)CC4(C)C)CC1"
recorded_result = 5.97

[[record]]
compound = "Cc1c(C(=O)O)nc2sc3c(Cl)c(F)ccc3n12"
recorded_result = 7.05

[[record]]
compound = "CC1CCCc2c1sc1nc(C(=O)NS(C)(=O)=O)cn21 (single isomer, unassigned) [Example 48]"
recorded_result = 5.92


----------
system.tested: interaction between biotinylated human S100A9 and human RAGE-Fc (Homo sapiens, UniProt P06702)
Sequence (P06702 1-114): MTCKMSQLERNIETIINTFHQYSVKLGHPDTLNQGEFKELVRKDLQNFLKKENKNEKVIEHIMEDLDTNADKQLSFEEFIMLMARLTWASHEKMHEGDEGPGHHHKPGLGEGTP
assay.details: AlphaScreen inhibition assay, biot-hS100A9:hRAGE-Fc
condition.details: biot-hS100A9 pre-incubated with compound 1 h, assay buffer with CaCl2 and ZnCl2
From the text: Inhibition Assay, Biot-hS100A9:hRAGE-Fc The AlphaScreen (Amplified Luminescent Proximity Homogeneous Assay) contains two types of beads, Alpha Donor beads and Acceptor beads (PerkinElmer). Upon laser excitation at 680 nm a photosensitizer in the Donor bead converts ambient oxygen to a more excited singlet state. […] Fluorophores in the Acceptor bead subsequently emit light at 520-620 nm which can be detected in the EnVision® Multilabel plate Reader (PerkinElmer). […]
Reported log10 of IC50 by item:
property: log10 of IC50 (log10 of the value in nM)

[[record]]
molecule = "O=C(O)c1cn2c(n1)sc1cc(Br)ccc12"
recorded_result = 3.11

[[record]]
molecule = "O=C(O)c1cn2c(n1)sc1c(Cl)c(N3CCCC3)ccc12"
recorded_result = 3.00

[[record]]
molecule = "Cc1c(C(=O)O)nc2sc3c(n12)CCC(C(C)(C)C)C3 (centres unmarked)"
recorded_result = 2.38

[[record]]
molecule = "CCN(CC)CCCS(=O)(=O)NC(=O)c1cn2c(n1)sc1c(Cl)c(Cl)ccc12"
recorded_result = 2.66

[[record]]
molecule = "CC(C)(C)c1ccc2c(c1)sc1nc(C(=O)O)cn12"
recorded_result = 2.98

[[record]]
molecule = "O=C(O)c1cn2c(n1)sc1c(F)c(Cl)c(OCCN3CCOCC3)cc12"
recorded_result = 2.91

[[record]]
molecule = "O=C(NS(=O)(=O)C(F)(F)F)c1cn2c(n1)sc1c(Cl)c(Cl)ccc12"
recorded_result = 2.62

[[record]]
molecule = "CC(C)(C)C1CCc2c(sc3nc(C(=O)NS(C)(=O)=O)cn23)C1 (centres unmarked)"
recorded_result = 2.53

[[record]]
molecule = "O=C(O)c1cn2c(n1)sc1c(Cl)c(Cl)cc(OCCN3CCOCC3)c12"
recorded_result = 2.84

[[record]]
molecule = "O=C(O)[C@H]1CN2C(=N1)Sc1c2ccc(F)c1Cl (single isomer, unassigned)"
recorded_result = 2.83

[[record]]
molecule = "CSc1c(C(=O)O)nc2sc3c(n12)CC(C)(C)CC3(C)C"
recorded_result = 2.46

[[record]]
molecule = "O=C(O)c1cn2c(n1)sc1cc(SC(F)(F)F)ccc12"
recorded_result = 3.17

[[record]]
molecule = "CC(=O)N1CCN(c2c(C(=O)O)nc3sc4c(n23)CC(C)(C)CC4(C)C)CC1"
recorded_result = 2.85

[[record]]
molecule = "COc1ccc(-c2c(C(=O)O)nc3sc4c(n23)CCC(C(C)(C)C)C4)cc1 (centres unmarked)"
recorded_result = 3.23

[[record]]
molecule = "O=C(O)c1cn2c3c(sc2n1)CCCCC3"
recorded_result = 3.02

[[record]]
molecule = "CC1(C)CCCc2c1sc1nc(C(=O)O)cn21"
recorded_result = 3.09

[[record]]
molecule = "Cc1c(C(=O)O)nc2sc3c(n12)CC(C)(C)CC3(C)C"
recorded_result = 2.43

[[record]]
molecule = "CC1(C(=O)O)CN2C(=N1)Sc1c2ccc(F)c1Cl (centres unmarked)"
recorded_result = 2.83

[[record]]
molecule = "CS(=O)(=O)Nc1c(C(=O)O)nc2sc3c(Cl)c(F)ccc3n12"
recorded_result = 2.30

[[record]]
molecule = "CS(=O)(=O)NC(=O)c1cn2c(n1)sc1c(Cl)c(Cl)ccc12"
recorded_result = 2.26

[[record]]
molecule = "COc1ccc2c(sc3nc(C(=O)O)cn32)c1Cl"
recorded_result = 3.20

[[record]]
molecule = "CC(C)CC1(C(=O)O)CN2C(=N1)Sc1c2ccc(F)c1Cl (centres unmarked)"
recorded_result = 2.84

[[record]]
molecule = "COC(=O)CCS(=O)(=O)NC(=O)c1cn2c(n1)sc1c(Cl)c(Cl)ccc12"
recorded_result = 1.85

[[record]]
molecule = "CC1(C)CCc2sc3nc(C(=O)NS(=O)(=O)CC(F)(F)F)cn3c2C1"
recorded_result = 2.87

[[record]]
molecule = "C[C@@]1(C(=O)O)CN2C(=N1)Sc1c2ccc(F)c1Cl (single isomer, unassigned) [Example 279b]"
recorded_result = 2.59

[[record]]
molecule = "CN1CCN(Cc2c(C(=O)O)nc3sc4c(n23)CCC(C(C)(C)C)C4)CC1 (centres unmarked)"
recorded_result = 3.17

[[record]]
molecule = "CC1(C)Cc2c(sc3nc(C(=O)O)cn23)C1(C)C"
recorded_result = 2.56

[[record]]
molecule = "CC1CCCc2c1sc1nc(C(=O)O)cn21 (centres unmarked)"
recorded_result = 2.92

[[record]]
molecule = "COCCN1CCN(Cc2c(C(=O)O)nc3sc4c(n23)CCC(C(C)(C)C)C4)CC1 (centres unmarked)"
recorded_result = 3.25

[[record]]
molecule = "O=C(O)c1cn2c(n1)sc1c(Cl)ccc(Cl)c12"
recorded_result = 3.16

[[record]]
molecule = "O=C(O)c1nc2sc3cc(OC(F)(F)F)ccc3n2c1Br"
recorded_result = 3.53

[[record]]
molecule = "CCS(=O)(=O)NC(=O)c1cn2c(n1)sc1c(Cl)c(Cl)ccc12"
recorded_result = 2.53

[[record]]
molecule = "O=C(O)c1cn2c(n1)sc1cccc(Cl)c12"
recorded_result = 3.33

[[record]]
molecule = "COCCS(=O)(=O)NC(=O)c1cn2c(n1)sc1c(Cl)c(Cl)ccc12"
recorded_result = 2.51

[[record]]
molecule = "O=C(O)c1cn2c3c(sc2n1)CCCC3"
recorded_result = 3.38

[[record]]
molecule = "COc1c(Cl)ccc2c1sc1nc(C(=O)O)cn12"
recorded_result = 3.04

[[record]]
molecule = "O=C(O)c1cn2c(n1)sc1cc(OC(F)(F)F)ccc12"
recorded_result = 3.06

[[record]]
molecule = "O=C(O)c1cn2c3c(sc2n1)-c1ccccc1CC3"
recorded_result = 2.56


Numbers sourced from patent US10385069B2.
